- subject of test: T1, cynomolgus (Macaca fascicularis) BCMA on cells (cynomolgus (Macaca fascicularis), UniProt Q02223 1-184 (human entry))
- T1 construct: also called cyno BCMA; cynomolgus BCMA
- test protocol: FACS, Cyno BCMA
quantity kind: MFI (MFI)

binder	quantity kind	unit abbreviation	recorded value
29C12 (antibody, V domains shown, IgG2 or IgG4 as purified from hybridoma (29C12.1); later converted to human IgG1; an engineered version may be meant there; also called 29C12.1; Ab-8) VH: EVQLLESGGALVQPGGSLRLSCAASGFTFSSYAMNWVRQAPGKGLEWVSAISVGGDTYYADSVKGRFTISRDNSKNTLYLQMNSLRAEDTAVYYCAKDQVTMVRGVWYYYGLDVWGQGTTVTVSS VL: DIVMIQSPLSLPVTPGEPASISCRSSQSLLHSNGNNYLDWYLQKPGQSPHLLISLGSNRTSGVPDRFSGSGSGTDFTLKISRVEAEDVGVYYCMQALQPPRRFGQGTKLEIKR	MFI	MFI	97300
